# System: HEK-293T
# Protocol summary: Multiplex assay against HEK293T
# Format: toxicity, cell-based
# Condition parameters: human, 24 h, 10 µM, compound concentration 10 uM, replicate 1
# satisfied = Population Mitotic Cells (%) below 40% (exclusive); not satisfied = Population Mitotic Cells (%) at/above 40%

COc1ccc(-c2ccc3c(N4CCOCC4)nc(N4C[C@@H](C)O[C@@H](C)C4)nc3n2)cc1CO [Ku-0063794]: not satisfied
C=C1/C(=C\C=C2/CCC[C@]3(C)[C@@H]([C@H](C)/C=C/[C@H](C)C(C)C)CC[C@@H]23)C[C@@H](O)C[C@@H]1O [DOXERCALCIFEROL]: not satisfied
CN1CCC(=C2c3ccccc3CC(=O)c3sccc32)CC1.O=C(O)/C=C/C(=O)O [KETOTIFEN FUMARATE]: satisfied
Cl.O=c1c2cccn2c2ccccc2n1CCCN1CCC(c2ccc(Cl)cc2)CC1: satisfied
O=C(Nc1ccc(-c2ccnc(Nc3ccc(N4CCOCC4)cc3)n2)cc1)[C@@H]1CCCN1: not satisfied

Now let's try a different one.
Just wondering, is Population Mitotic Cells (%) of COc1cccc2cc(-c3nc([C@H]4CC[C@H](C(=O)O)CC4)n4ncnc(N)c34)[nH]c12 [OSI-027] below 40%?
not satisfied
